Target: Cannabinoid receptor 2 (Homo sapiens)
Sequence (P34972 whole entry): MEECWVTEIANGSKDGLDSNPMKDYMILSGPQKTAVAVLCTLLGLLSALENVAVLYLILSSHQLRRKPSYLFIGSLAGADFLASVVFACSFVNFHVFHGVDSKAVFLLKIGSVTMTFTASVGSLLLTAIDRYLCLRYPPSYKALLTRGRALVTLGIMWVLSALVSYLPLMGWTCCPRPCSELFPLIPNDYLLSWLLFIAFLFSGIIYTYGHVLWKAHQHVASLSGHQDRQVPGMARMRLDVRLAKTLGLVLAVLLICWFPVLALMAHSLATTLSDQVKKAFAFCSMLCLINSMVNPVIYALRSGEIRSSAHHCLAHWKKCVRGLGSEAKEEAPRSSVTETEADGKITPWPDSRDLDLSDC
Test: Inhibition of [35S]GTP-gamma-S binding to human CB2 receptor expressed in CHO cells
Property: IC50; scope: individual molecules
TEST_READOUT: IC50

>>> df
                           substance_smiles  observed
0  CCCCCOc1c(OC)ccc2cc(C(=O)NCCc3c[nH]c4ccccc34)c(O)nc12   25.1 nM
1  CCCCCOc1c(OC)ccc2cc(C(=O)NCCc3ccc([N+](=O)[O-])cc3)c(=O)[nH]c12    100 nM
2  CCCCCOc1c(OC)ccc2cc(C(=O)NCCc3ccc(N)cc3)c(=O)[nH]c12   3.16 nM
3  CCCCCOc1c(OC)ccc2cc(C(=O)NCCc3ccc(O)c(O)c3)c(O)nc12    398 nM
4  CCCCCOc1c(OC)ccc2cc(NC(=O)Cc3ccc4c(c3)OCO4)c(=O)[nH]c12     20 nM
